Test Target: T1, TRCW5 antigen (CD3δε-Fc-Avi) (biotinylated (site not stated))
T1 construct: also called recombinant CD3
T1 sequence (chain, as listed by the source mutant limits assumed): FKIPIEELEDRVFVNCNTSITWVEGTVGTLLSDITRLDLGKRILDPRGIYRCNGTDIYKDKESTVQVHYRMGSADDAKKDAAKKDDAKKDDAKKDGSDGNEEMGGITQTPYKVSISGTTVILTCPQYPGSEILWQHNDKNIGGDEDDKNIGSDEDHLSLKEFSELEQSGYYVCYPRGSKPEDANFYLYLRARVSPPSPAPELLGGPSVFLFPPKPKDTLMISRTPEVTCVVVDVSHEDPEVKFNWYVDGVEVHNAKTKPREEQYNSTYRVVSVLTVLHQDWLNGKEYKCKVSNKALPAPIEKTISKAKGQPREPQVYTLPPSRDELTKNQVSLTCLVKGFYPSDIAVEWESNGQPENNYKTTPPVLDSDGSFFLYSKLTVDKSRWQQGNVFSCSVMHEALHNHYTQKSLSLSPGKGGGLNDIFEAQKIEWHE
Assay Details: ELISA after heat
In this section we review reported % Retained 55° C. values for a set of binders.
Readout Label: % Retained 55° C. (%)

binder="CD3B2067 (scFv) scFv: QVQLVQSGAEVKKPGSSVKVSCKASGYTFTRSTMHWVRQAPGQGLEWMGYINPSSAYTNYNQKFQGRVTLTADKSTSTAYMELSSLRSEDTAVYYCASPQVHYDYNGFPYWGQGTLVTVSSGGSEGKSSGSGSESKSTGGSEIVLTQSPATLSASPGERVTLSCSASSSVSYMNWYQQKPGQSPRRLIYDSSKLASGVPARFSGSGSGRDYTLTISSLEPEDFAVYYCQQWSRNPPTFGGGTKVEIK" unit_of_measure=% endpoint_result=98
binder="CD3B2082 (scFv) scFv: QVQLVQSGAEVKKPGSSVKVSCKASGYTFTRSTMHWVRQAPGQGLEWMGYINPSSAYTNYAQKFQGRVTLTADKSTSTAYMELSSLRSEDTAVYYCASPQVHYDYNGFPYWGQGTLVTVSSGGSEGKSSGSGSESKSTGGSEIVLTQSPATLSASPGERVTLSCSASSSVSYMNWYQQKPGTSPRRWIYDSSKLASGVPARFSGSGSGRDYTLTISSLEPEDFAVYYCQQWSRNPPTFGGGTKVEIK" unit_of_measure=% endpoint_result=114
binder="CD3B2065 (scFv) scFv: QVQLVQSGAEVKKPGSSVKVSCKASGYTFTRSTMHWVKQAPGQGLEWIGYINPSSAYTNYAQKFQGRVTLTADKSTSTAYMELSSLRSEDTAVYYCASPQVHYDYNGFPYWGQGTLVTVSSGGSEGKSSGSGSESKSTGGSEIVLTQSPATLSASPGERVTLSCSASSSVSYMNWYQQKPGQAPRRWIYDSSKLASGVPARFSGSGSGRDYTLTISSLEPEDFAVYYCQQWSRNPPTFGGGTKVEIK" unit_of_measure=% endpoint_result=115
